# TARGET_OR_TEST_SYSTEM: human adenosine A2A receptor (Homo sapiens, UniProt P29274)
# Construct: expressed in transfected cells; host or cells: HEK293 cells infected with BacMam
# Sequence (P29274 whole entry): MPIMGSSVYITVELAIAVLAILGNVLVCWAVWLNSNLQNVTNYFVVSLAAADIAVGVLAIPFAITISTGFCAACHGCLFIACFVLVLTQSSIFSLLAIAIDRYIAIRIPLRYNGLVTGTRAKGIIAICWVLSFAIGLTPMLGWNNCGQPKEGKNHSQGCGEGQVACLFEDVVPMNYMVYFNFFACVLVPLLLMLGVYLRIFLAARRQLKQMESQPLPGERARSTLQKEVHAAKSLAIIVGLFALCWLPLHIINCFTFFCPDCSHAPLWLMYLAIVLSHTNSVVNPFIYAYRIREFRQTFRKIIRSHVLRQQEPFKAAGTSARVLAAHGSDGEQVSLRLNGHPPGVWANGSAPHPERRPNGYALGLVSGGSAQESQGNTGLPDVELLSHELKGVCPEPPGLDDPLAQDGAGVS
# EXPERIMENTAL_DETAILS: Inhibition binding assay, human adenosine A2A receptor membranes, [3H]ZM241385
# EXPERIMENTAL_SETUP: 1 nM [3H]ZM241385, HEK293-hA2A membranes, 25° C., 1 h; IC50 converted to Ki with Cheng-Prusoff; read-out: A2A pKi (converted)
MEASURED_ATTRIBUTE: Ki (µM)

# MOLECULE, Ki / µM
measured = [
    ("Cc1cc(-c2c(-c3ccccc3)nc(N)n3c(=O)n(CC4CCNCC4)nc23)cc(C)n1 [Example 2-68]", 0.398),
    ("CCC(c1ccc(F)cn1)n1nc2c(-c3cc(C)nc(C)c3)c(-c3ccccc3)nc(N)n2c1=O (single isomer, unassigned) [Example 1-38-iso-2]", 0.2),
    ("Cc1cc(-c2c(-c3ccccc3)nc(N)n3c(=O)n(Cc4ccc(O)cc4)nc23)cc(C)n1 [Example 1-4]", 0.00126),
    ("COc1ncccc1Cn1nc2c(-c3cc(C)nc(C)c3)c(-c3ccccc3)nc(N)n2c1=O [Example 1-28]", 0.0002),
    ("Cc1cc(-c2c(-c3ccccc3)nc(N)n3c(=O)n(Cc4ccc(F)cn4)nc23)cc(C(F)(F)F)n1 [Example 1-72]", 0.00251),
]

(P) COC(=O)CCN1CCC(CCn2nc3c(-c4cc(C)nc(C)c4)c(-c4ccccc4)nc(N)n3c2=O)CC1 [Example 2-109]
(Q) Cc1cc(-c2c(-c3ccccc3)nc(N)n3c(=O)n(CCC(F)(F)F)nc23)cc(CO)n1 [Example 2-51]
## Task Pick one: P or Q . Which has the bigger Ki number? Field: selected label. Fill in the label of the entry you choose.
## Result P
(P: 0.02 µM, Q: 0.00126 µM)

(A) Cc1cc(-c2c(-c3ccccc3)nc(N)n3c(=O)n(Cc4ncc(F)cc4Cl)nc23)cc(CO)n1 [Example 1-50]
(B) Cc1cc(-c2c(-c3ccccc3)nc(N)n3c(=O)n(C(C)C)nc23)cc(C)n1 [Example 2-4]
## Task Pick one: A or B . Which has the bigger Ki number? Field: selected label. Fill in the label of the entry you choose.
## Result B
(B: 0.0501 µM, A: 0.001 µM)

* * *

# TARGET_OR_TEST_SYSTEM: human adenosine A2A receptor (Homo sapiens, UniProt P29274)
# Construct: expressed in transfected cells; host or cells: HEK293 cells infected with BacMam
# EXPERIMENTAL_DETAILS: Inhibition binding assay, human adenosine A2A receptor membranes, [3H]ZM241385
# EXPERIMENTAL_SETUP: 1 nM [3H]ZM241385, HEK293-hA2A membranes, 25° C., 1 h; IC50 converted to Ki with Cheng-Prusoff; read-out: A2A pKi (converted)
MEASURED_ATTRIBUTE: Ki (nM)

Solved cases below.
# COMPOUND, RECORDED_NUMBER
records = [
    ("Cc1cc(-c2c(-c3ccccc3)nc(N)n3c(=O)n(CCN4CCN(C)CC4)nc23)cc(C)n1 [Example 2-102]", 126),
    ("Cc1cc(-c2c(N3CCOCC3)nc(N)n3c(=O)n(CCC(F)(F)F)nc23)cc(C)n1 [Example 3-1]", 316),
]

(1) COc1ccc(-c2nc(N)n3c(=O)n(CCC(F)(F)F)nc3c2-c2cc(C)nc(C)c2)cc1 [Example 2-35]
(2) Cc1cc(-c2c(-c3cccnc3)nc(N)n3c(=O)n(CCC(F)(F)F)nc23)cc(C)n1 [Example 2-39]
## Task Lower value for measured Ki? Options: 1 , 2 Field: selected label. Fill in the label of the entry you choose.
## Result 1
(1: 1.26 nM, 2: 50.1 nM)

(a) CNC(=O)c1cc(NCCn2nc3c(-c4cc(C)nc(C)c4)c(-c4ccccc4)nc(N)n3c2=O)ccc1Cl [Example 1-91]
(b) Cc1cc(-c2c(-c3ccc(F)cc3)nc(N)n3c(=O)n(CCN4CCCCC4)nc23)cc(C)n1 [Example 2-104]
(c) COc1cc(-c2c(-c3ccccc3)nc(N)n3c(=O)n(CCC(F)(F)F)nc23)cc(CO)n1 [Example 2-46]
(d) Cc1ccc(Cn2nc3c(-c4cc(C)nc(CO)c4)c(-c4ccc(F)cc4)nc(N)n3c2=O)nc1 [Example 1-61]
(e) Cc1cc(-c2c(-c3ccccc3)nc(N)n3c(=O)n(C[C@H]4COCCN4C)nc23)cc(C)n1 [Example 2-77]
## Task Order the records, beginning with the lowest Ki and ending with the highest. // rank by listing labels in the order requested
## Result c, d, e, a, b

(1) Cc1cc(-c2c(-c3ccccn3)nc(N)n3c(=O)n(CCC(F)(F)F)nc23)cc(C)n1 [Example 2-37]
(2) Cc1cc(-c2c(-c3ccc(F)cc3)nc(N)n3c(=O)n(CCC(F)(F)F)nc23)cc(C)n1 [Example 2-33]
## Task Pick one: 1 or 2 . Which has the bigger Ki number? Field: selected label. Fill in the label of the entry you choose.
## Result 1
(1: 31.6 nM, 2: 1.26 nM)

(I) CCC(c1ccc(F)cn1)n1nc2c(-c3cc(C)nc(CO)c3)c(-c3ccccc3)nc(N)n2c1=O (single isomer, unassigned) [1-46 iso-2]
(II) Cc1cc(-c2c(-c3ccccc3)nc(N)n3c(=O)n(Cc4ccccc4SC(F)F)nc23)cc(C)n1 [Example 1-16]
(III) [2H]c1c([2H])c([2H])c(-c2nc(N)n3c(=O)n(CCC(F)(F)F)nc3c2-c2cc(C)nc(CO)c2)c([2H])c1[2H] [Example 2-61]
(IV) Cc1cc(-c2c(-c3ccccc3)nc(N)n3c(=O)n(Cc4ccc(O)nn4)nc23)cc(C)n1 [Example 1-37]
## Task Order the records, beginning with the lowest Ki and ending with the highest. // rank by listing labels in the order requested
## Result II, III, IV, I

* * *

# TARGET_OR_TEST_SYSTEM: human adenosine A2A receptor (Homo sapiens, UniProt P29274)
# Construct: expressed in transfected cells; host or cells: HEK293 cells infected with BacMam
# EXPERIMENTAL_DETAILS: Inhibition binding assay, human adenosine A2A receptor membranes, [3H]ZM241385
# EXPERIMENTAL_SETUP: 1 nM [3H]ZM241385, HEK293-hA2A membranes, 25° C., 1 h; IC50 converted to Ki with Cheng-Prusoff; read-out: A2A pKi (converted)
MEASURED_ATTRIBUTE: Ki (nM)

# MOLECULE, MEASUREMENT_UNIT, Ki
measured = [
    ("Cc1cc(-c2c(-c3ccc(F)cc3)nc(N)n3c(=O)n(CCC(F)(F)F)nc23)cc(C)[n+]1[O-] [Example 2-58]", "nM", 50.1),
]

(a) COC(=O)c1nc(N)n2c(=O)n(CCC(F)(F)F)nc2c1-c1cc(C)nc(C)c1 [Example 3-6]
(b) Cc1cc(-c2c(-c3ccc(F)cc3)nc(N)n3c(=O)n(CCc4ccccc4)nc23)cc(C)n1 [Example 1-87]
## Task Pick one: a or b . Which has the bigger Ki number? Field: selected label. Fill in the label of the entry you choose.
## Result a

(a) Cc1cc(-c2c(-c3ccccc3)nc(N)n3c(=O)n(C[C@@H]4CNCCN4C)nc23)cc(C)n1 [Example 2-88]
(b) Cc1cc(-c2c(-c3ccccc3)nc(N)n3c(=O)n(C[C@@H]4CN(C)CCO4)nc23)cc(C)n1 [Example 2-72]
(c) Cc1cnn(-c2nc(N)n3c(=O)n(CCC(F)(F)F)nc3c2-c2cc(C)nc(C)c2)c1 [Example 2-41]
(d) Cc1cc(-c2c(-c3ccccc3)nc(N)n3c(=O)n(CC4CCCOC4)nc23)cc(C)n1 (single isomer, unassigned) [Example 2-81-iso-2]
## Task Order the records, beginning with the lowest Ki and ending with the highest. // rank by listing labels in the order requested
## Result d, b, c, a

* * *

# TARGET_OR_TEST_SYSTEM: human adenosine A1 receptor (Homo sapiens, UniProt P30542)
# Construct: expressed in transfected cells; host or cells: HEK293 cells infected with BacMam (the same paragraph also labels the preparation CHO-hA1)
# Sequence (P30542 1-326): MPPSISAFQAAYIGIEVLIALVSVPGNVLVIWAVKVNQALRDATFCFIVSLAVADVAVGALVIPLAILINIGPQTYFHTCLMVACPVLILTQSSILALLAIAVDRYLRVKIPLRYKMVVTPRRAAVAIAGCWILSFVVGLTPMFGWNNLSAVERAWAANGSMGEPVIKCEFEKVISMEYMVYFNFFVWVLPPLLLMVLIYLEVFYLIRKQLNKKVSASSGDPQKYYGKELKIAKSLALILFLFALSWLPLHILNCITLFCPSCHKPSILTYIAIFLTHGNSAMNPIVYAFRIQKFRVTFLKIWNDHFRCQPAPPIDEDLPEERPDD
# EXPERIMENTAL_DETAILS: Inhibition binding assay, human adenosine A1 receptor membranes, [3H]DPCPX
# EXPERIMENTAL_SETUP: 1 nM [3H]DPCPX, 25° C., 1 h; IC50 converted to Ki with Cheng-Prusoff; read-out: A1 pKi (converted)
MEASURED_ATTRIBUTE: Ki (nM)

# COMPOUND, MEASURED_ATTRIBUTE, RECORDED_NUMBER
rows = [
    ("Cc1cc(-c2c(-c3ccccc3)nc(N)n3c(=O)n(CCCn4ccccc4=O)nc23)cc(C)n1 [Example 2-112]", "Ki", 200),
]

(1) Cc1cc(-c2c(-c3ccccc3)nc(N)n3c(=O)n(Cc4ccc(F)cn4)nc23)cc(C)[n+]1[O-] [Example 1-42]
(2) Cc1cc(-c2c(-c3ccccc3)nc(N)n3c(=O)n(CC4CCCOC4)nc23)cc(C)n1 (single isomer, unassigned) [Example 2-81-iso-1]
## Task Lower value for measured Ki? Options: 1 , 2 Field: selected label. Fill in the label of the entry you choose.
## Result 2
(2: 158 nM, 1: 251 nM)
